experiment: soluble on expression in E. coli; label from the status in PepcDB or PDB records
METRIC: soluble on expression in E. coli

SEQ TEXT: MSLTQIENSQYRKHKQKQQHLQHSLTGESKTAIVVFSRSGNTATLSEHIAHKTNGHVYEIFAKSYALGIPGWINALKDARSNVAEIVPQHIDLSSYDTVYLGSPIWLYSPAPPFWQFVKDNDLTNKRVILFNSFNSKFEQHFIDEFAALARAKGATSFEHQYVKRGRMGDQLSTDEMLAAFDHLNPNEGHHHHHH
soluble on expression in E. coli: soluble
//
SEQ TEXT: MPINAAYRGPADLPEVIPVFPLAGALLLPRGQMPLNIFEPRYLAMIDDALRDGHRLIGMIQPDAAHSSETAEKPSLFNVGCVGRITQLAESGDGRYILELTGVSRFKVVDELQVLTPYRQCKVDYFPFGDDFTARKGEDEVDRETLLSVLTDFLKANNLKVDWDGVESAPNEALVNALAMMSPYGPPEKQALLEAPDLKTRAEILIAVTEMDLAKKRTSGDPPLQLEHHHHHH
soluble on expression in E. coli: not soluble
//
SEQ TEXT: VDTHSEVLIFEVIPADDFLQQQLQITVQDRVWHVKRVRYRKQKPMALEETWMPLALFPDLTWQVMENSKYHFIEEVKKMVIDRSEQEIIPLMPTEEMSRLLNISQTKPILEKVSRGYLVDGRVFEYSRNAFNT
soluble on expression in E. coli: soluble
//
SEQ TEXT: MGSDKIHHHHHHMNFIKEKHIEIVLNQTCLNPKLSVFLPVIKKTGVQLISVFHSQPYGMYGIKAFPKICNVFGVDKVGNLVDVLIHFAFKLKYGRYLKRMLQYSDKLVMLSDKFINEFLYFSGKKYAEKMLSISNPVTINGGGSEKKEKIVLFVGRISQEKGVDKILEVWRGICHEEKYKEWRLVIVGDGEKRKQMEKYAMDMELINYSFEGFQKPDGYYDKAKIFCMASAFEGFGLVLVEAMSYGVVPMAFNSFSNCSDIIDDDKNGILVTPFSINEYRKKIIELIENDEKWMKMSTCSINKSKEYSIECIGAKWLDLFYSLLNNKVT
soluble on expression in E. coli: not soluble
//
SEQ TEXT: MGSDKIHHHHHHMPMNRIDRLLGMITLLQAKKFVSAEKIADKFKISKRTVFRDIKAICEQGIPVGSEPNKGYFIVDGYFLPPVLFNNDEANALLLTESLVKGFADKSISKHYSNALDKIKAGLKQVDKDKLEHMQDAIKFQLPERMNNDFEYLSILQVAVSDKKIIYIDYKNNKEEVSKREIEPIGLIFYAFSWHLIGWCHHRKAYRDFKVSRIIQMKNTGVPFKKNKHMPLSEYMKELPVNY
soluble on expression in E. coli: not soluble

Task: Query: soluble on expression in E. coli; subject: `MSLNDLLTRRAVVAGMGVLGLGLLAGCSPARGLEFKYGKNMSNEILGRKFSLKDPQGNVRTLSSFYGSMPMVFFGFTQCPAVCPTTLARAAQIRKLLRGRDRDLFQVVFITLDPERDTPEVLDAYVKAFDPTFTALTGTPEEIAAVAKEFKVFYEKVPAGDTYTISHSSTSYVYDTRGTLRLSLGHSLNAKECAEDLVTLMEIEGHHHHHH`
Result: soluble

Task: Query: soluble on expression in E. coli; subject: `MLCIDSSRDLTYGVVMTFKVMEFQKGRLQNLYWKRDVCASCKGNQNFVCLKKQVCAIRTPSCKGRGGSVGCSLGIQLAFSGTDKHLAVLNSWYEVDNLKQYSLYGLYSNLKSSLTNQLNNFF`
Result: soluble
